# Assay Summary: NCI Yeast Anticancer Drug Screen. Data for the rad50 strain (AID 155);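 further: 0% = growth of vehicle-only cultures of the same strain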
# Run Parameters: S. cerevisiae rad50 strain growth inhibition; at 3.7 µM; hits give high values
About 79,000 compounds went through this panel and 15% of them were active in at least one assay; those are over-represented in the sample as a whole.
Parameter Measured: growth inhibition (%)
// return numeric value only (unit: %, not printed)

So what's the measured growth inhibition for this one? CNC(=O)OCc1c2ccncc2c(C)c2c1[nH]c1ccccc12
72

Then Cc1cc(Cl)ccc1NC(=O)/C(Cl)=C(/Cl)C(=O)O ?
6

Then CCCCCCCSCC1C(=O)C23C(O)C1CCC2C12COC3(O)C(O)C1C(C)(C)CCC2O (stereo unspecified) ?
16

Then O=C1c2ccccc2N2OC3(N4CCCC4)CCCCC3C12c1ccccc1 (stereo unspecified) ?
-5

Then CC1(C)C(O)OC(O)C1(C)C (stereo unspecified) ?
-2

Then CC/C(=C(\c1ccccc1)c1ccc(OCC[N+](C)(C)C)cc1)c1ccccc1 ?
85

Then CCCCCCCCCC(=O)N(CCC)CCC ?
-8

Then CC(=O)O[C@H]1CC[C@@]2(C)C(=CC[C@@H]3C2CC[C@]2(C)C(=O)NC(=O)CC32)C1 (stereo partly specified) ?
-29

Then Cc1ccc(NC(Nc2ccc(C)cc2C)=C(C(Cl)=C(Cl)Cl)[N+](=O)[O-])c(C)c1 ?
4

Then C=CC(C)(C)N1C(=O)C(C(C)=O)=C(O)C1Cc1c[nH]c2ccccc12 (stereo unspecified) ?
-2

Then Cc1oc2ccccc2c(=O)c1Cn1nnc2ccccc21 ?
-1

---

# Assay Summary: NCI Yeast Anticancer Drug Screen. Data for the rad50 strain (AID 155);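 further: 0% = growth of vehicle-only cultures of the same strain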
# Run Parameters: S. cerevisiae rad50 strain growth inhibition; at 1.2 µM; hits give high values
About 79,000 compounds went through this panel and 15% of them were active in at least one assay; those are over-represented in the sample as a whole.
Parameter Measured: growth inhibition (%)
// return numeric value only (unit: %, not printed)

So what's the measured growth inhibition for this one? CN(N=O)C(=O)Nc1ccc(C(=O)O)cc1
2

Then O=C1C(CCSc2ccccc2)C(=O)N(c2ccccc2)C1c1ccccc1 (configuration not stated) ?
12

Then O=C1C=C(NCCc2cc(Br)c(O)c(Br)c2)C(=O)c2ncccc21 ?
18

Then CCCCCCCN1C(=O)c2ccccc2C1=O ?
-2

Then COc1ccc2nc3cccc([N+](=O)[O-])c3c(NCCNCCO)c2c1 ?
41

Then CCCCCCC1OCC(O)C(OCCCC)O1 (configuration not stated) ?
-5

Then COC(=O)C(=O)CC(=O)c1cccc(OC)c1 ?
-13

Then CN(C)CC1=Nc2cccc3cccc(c23)N1 ?
-7

Then OC1(c2ccccc2)C2CC=CC2C1(c1ccccc1)c1ccccc1 (configuration not stated) ?
-2

Then c1ccc2c(c1)ccn2CCc1c[nH]c2ccccc12 ?
-20

Then Brc1ccc(B2Nc3ccccc3N2)cc1 ?
6

Then O=[N+]([O-])c1ccc(S(=O)(=O)Cc2ccccc2)c([N+](=O)[O-])c1 ?
9

---

For each of the molecules below, state its growth inhibition.
# Assay Summary: NCI Yeast Anticancer Drug Screen. Data for the rad18 strain (AID 177)
# Run Parameters: S. cerevisiae rad18 mutant growth inhibition; at 100.0 µM; hits give high values
This is part of a sample that, as a whole, favours compounds with a hit. Of some 79,000 tested, about 15% had one in any assay.
// return numeric value only (unit: %, not printed)

So what's the measured growth inhibition for this one? CC1=CC(=O)C=CC1=Nc1cc(Cl)c(O)c(Cl)c1
91

Then CCCCCCC=C(C(=O)OCC)C(=O)OCC ?
32

Then CCC(/C=C/c1ccccc1)=N\Nc1ccc(Cl)cc1 ?
95

Then Nc1cc(Cl)ccc1Nc1ccccc1 ?
85

Then COC(=O)c1ccccc1N=NNc1cccc(SC)c1 ?
89

Then COc1ccc(N=c2cc(-c3ccccc3)oc3ccccc23)cc1 ?
-8

Then CCCCS/C(=C(/C#N)C(N)=O)c1cc2c([nH]1)CCCC2 ?
44

Then c1c[nH]c(CN2CCN(Cc3ncc[nH]3)CC2)n1 ?
98

Then CC(C)OP(=O)(OC(C)C)/C(Cl)=N/Nc1ccc([N+](=O)[O-])cc1 ?
96

Then O=C(C(Cl)=C(N1CCCCC1)N1CCCCC1)C(Cl)Cl ?
-1

Then CS(=O)(=O)O.[Ag] ?
98

Then O=C1c2ccccc2C(=O)c2sc(Nc3ccccc3Cl)nc21 ?
97

Then O=C(/C(=C/c1ccc(O)cc1)c1ccccc1)c1ccccc1 ?
86

Then Nc1ccc(/C=C/c2ccc3cccnc3c2)cc1 ?
77

Then CC(CC/C(=N/O)c1ccccc1)(CC/C(=N\O)c1ccccc1)[N+](=O)[O-] (stereo unspecified) ?
84

Then C[n+]1c(-c2ccc(/C=N/NC(=O)c3ccc(C(=O)N/N=C/c4ccc(-c5cn6ccccc6[n+]5C)cc4)cc3)cc2)cn2ccccc21 ?
70

Then CCN(CC)CCNc1ccc2ncn3c4ccc(O)cc4c(=O)c1c23 ?
-14

Then Cc1c(C(=O)/C=C/c2ccccc2[N+](=O)[O-])[n+](=O)c2ccccc2n1[O-] ?
93

Then O=C(NO)c1coc2ccccc2c1=O ?
25

Then BrC1C2CCC3OC3C12 (stereo unspecified) ?
99

Then O=C1C(=O)N(c2ccccc2)[C@@]2(c3ccccc3)C(=Nc3ccccc3)OC(c3ccccc3)=C12 ?
30

Then c1ccc2c(c1)N=C1CCCC3CCCC123 (stereo unspecified) ?
98

Then Nc1ccc(N=Nc2ccc(-c3ccc(O)cc3)cc2)c2ccc(S(=O)(=O)O)cc12 ?
72

Then Oc1ccc(N=Nc2ccc(Cl)cc2)cc1 ?
97

Then CNC(=O)OCc1c(COC(=O)NC)c(C)n(-c2ccc(Br)cc2)c1C ?
96

Then CC(=O)O/N=C1C=C/C(=C(/C#N)c2ccccc2)C=C/1C ?
95

Then O=C1c2ccccc2C(=O)c2c(O)c(NCCNCCO)cc(O)c21 ?
94

Then CN(C)CCNC(=Cc1ccc2ccccc2[n+]1C)NCCN(C)C ?
-1

Then CCC[CH2][Ge]([CH2]CCC)([CH2]CCC)[O]C(=O)C(O)c1ccccc1 (stereo unspecified) ?
99

Then Cc1cc(O)c(C(C)C)cc1SC#N ?
98

Then O=C1c2cccc3cccc(c23)C(=O)N1CCNCCN1C(=O)c2cccc3cccc(c23)C1=O ?
6

Just for reference, PubChem BioAssay (NCI) is where these values come from.
